- measurement-protocol: protein stability index of a GFP-peptide fusion (GPS, HEK-293T) (PSI 1-6); higher = more stable;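 further: 24-mer peptide tiles fused after GFP, lentivirally expressed, FACS-sorted into six equal bins by GFP/DsRed ratio, decoded by Illumina sequencing, PSI is the read-weighted mean bin number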
- experimental-conditions: treatment: DMSO; c terminus: a fixed tail appended
Listed next: entries and their corresponding protein stability index.
Provide a numeric answer; units are not to be included.

Study these solved cases before continuing.
• EVAEQLELERIGPQHQAGSDSLLT [CNOT7] = 4.9
• VSHPIIYRGAVYADNMEFEQCIKL [FEM1B] = 2.5
• RYSCESRIRSYLREVSSYPSTVGA [DFFB] = 2.6
• PFDMDSCLSRHSINPYSNRESRIL [DFFB] = 3.24
• RFFGPNAEISQPPALSQLVNLYLG [TCF25] = 3.05
• TEALGCDPPLSQDERTHRSDRPFK [ZNF8] = 5.39

Req: Which protein stability index reading was recorded for the sequence GVVVCEADTGRIHRFVEKPQVFVS [GMPPB] ?
Resp: 2.25

Req: And FSDDCDLPSAQDINRLVGLQNTYM [GLT8D2] ?
Resp: 3.68

Req: And WEWNELIPQGICPVGRSWHSLTPV [KLHDC2] ?
Resp: 2.16

Req: And CEERWLVIDRKVYNISEFTRRHPG [FADS1] ?
Resp: 2.1

Req: And AIRRRNVRGEDSGRKPERRRLKTT [DAPK3] ?
Resp: 4.64

Req: And GLQPVVFVLFLFAYLVTVRGNLSI [OR3A1] ?
Resp: 2.6
